Tested on: NCI-H460 lung
measurement.protocol: NCI-60 one-dose screen, 48 h
measurement.parameters: 10 µM unless noted
Procedure: Growth inhibition of the NCI-H460 human Non-Small Cell Lung tumor cell line is measured as a screen for anti-cancer activity. Cells are grown in 96 well plates and exposed to the test compound for 48 hours. Compounds are tested at a single concentration, which is 10^-5 M for most compounds. The reported endpoint is percent growth (GI% or GIPRCNT), where numbers from 0 - 100% represent growth inhibition, and numbers from -100% - 0 represent cell death. […]
This is part of a sample that, as a whole, favours compounds with a hit. Of some 83,000 tested, about 20% had one in any assay. Calls of active or inactive are those of the source. The calls were made as follows: active = growth percent below 10; inactive = the rest.
Labels: active, inactive

compound=N#Cc1ccc(N2Cc3cc(Cl)ccc3OC3=C2C(=O)N(Cc2ccc(F)cc2)C3=O)cc1 qualitative_label=inactive
compound=COc1ccc(-n2nc(C(=O)NCC(=O)O)nc2-c2ccccc2)cc1 qualitative_label=inactive
compound=S=c1ssnc1-c1cc2ccccc2o1 qualitative_label=inactive
compound="CCCCCCCCCCCCCC1=NCC[N+]1(CCO)Cc1ccccc1 (stereo not drawn)" qualitative_label=active
compound="O=CN1N=C(c2ccc3c(c2)OCO3)CC1c1cccc(Nc2ccnc3cc(C(F)(F)F)ccc23)c1 (stereo not drawn)" qualitative_label=inactive
compound=N#Cc1c(-c2ccc(F)cc2)nc(N/N=C/c2cccc(O)c2)nc1N1CCOCC1 qualitative_label=inactive
compound=Cc1cccc(C)c1Nc1nnc(-c2ccc(F)cc2)o1 qualitative_label=inactive
compound="O=CN1N=C(c2ccc(Cl)cc2)CC1c1cccc(Nc2ccnc3cc(C(F)(F)F)ccc23)c1 (stereo not drawn)" qualitative_label=inactive
compound=O=C(O)c1ccc(-n2cc(/C=N/Nc3ccc(Cl)cc3Cl)c(-c3ccccc3)n2)cc1 qualitative_label=inactive
compound=Cc1ccc(-c2nc(C#N)c(S(=O)(=O)N(C)CCO)o2)cc1 qualitative_label=inactive
compound="O=C1CC23OC(C(O)c4ccccc4N12)C1C(c2ccccc2)=NOC13 (stereo not drawn)" qualitative_label=inactive
compound="O=C1CC23OC4ON=C(Br)C4C2C(O)c2ccccc2N13 (stereo not drawn)" qualitative_label=inactive
compound=CCC1=C[C@H]2CN(CCc3c([nH]c4ccccc34)[C@@](C(=O)OC)(c3cc4c(cc3OC)N(C)[C@H]3[C@@](O)(C(=O)OC)[C@H](OC(C)=O)[C@]5(CC)[C@@H]6C[C@@H]6CN6CC[C@]43[C@@H]65)C2)C1 qualitative_label=active
compound=Cc1[nH]c(N=Nc2ccccc2)nc1N=Nc1ccccc1 qualitative_label=inactive
compound="COc1cc(C(C)c2ccc3c(ccn3C)c2)cc(OC)c1OC (stereo not drawn)" qualitative_label=active
compound=C[C@H]1[C@H](C)CC[C@]2(C(=O)OCCCC[P+](c3ccccc3)(c3ccccc3)c3ccccc3)CC[C@]3(C)C(=CC[C@@H]4[C@@]5(C)CC[C@H](OC(=O)C(Cl)Cl)C(C)(C)[C@@H]5CC[C@]43C)[C@H]12 qualitative_label=active
compound="CCC1S/C(=N\\N=C(/C)c2ccc[nH]2)N(c2ccccc2)C1=O (stereo not drawn)" qualitative_label=inactive
compound=Nc1n[nH]c2cccc(C#Cc3cccc(NC(=O)c4cc(N5CCOCC5)cc(C(F)(F)F)c4)c3)c12 qualitative_label=inactive
compound=C#C[C@@]1(O)[C@@H](CO)O[C@@H](n2cc(Br)c3c(N)ncnc32)[C@@H]1O qualitative_label=active
compound=CC(=O)c1ccc(NC(=O)CSc2nnc(-c3cc(-c4ccc(Cl)cc4)nc4ccccc34)o2)cc1 qualitative_label=inactive
compound=C=C1C(=O)O[C@H]2[C@H]1CC/C(COC(=O)CCC(=O)OC/C1=C/CC[C@@]3(C)O[C@H]3[C@H]3OC(=O)C(=C)[C@@H]3CC1)=C\CC[C@@]1(C)O[C@@H]21 qualitative_label=inactive
compound=O=c1[nH]nc(-c2ccc(Br)cc2)c2sc(NC(=S)Nc3ccc(Cl)cc3)nc12 qualitative_label=inactive
compound=COc1cc(F)c(-c2nc3c(C)cccc3n2Cc2c(F)cccc2F)c(F)c1 qualitative_label=inactive
